Tested on: Rhizopus arrhizus
assay_explanation: Antifungal activity against Rhizopus oryzae RHPOR2 assessed as reduction in microbial growth after 24 hrs by broth microdilution method
Type: functional
Provide the reported MIC of each item.
Answers are plain numbers, in µg/mL.

{"molecule": "C[C@@H]1[C@H](O)[C@@H](C)/C=C/C=C/C=C/C=C/C=C/C=C/C=C/[C@H](O[C@@H]2O[C@H](C)[C@@H](O)[C@H](N)[C@@H]2O)C[C@@H]2O[C@](O)(C[C@@H](O)C[C@@H](O)[C@H](O)CC[C@@H](O)C[C@@H](O)CC(=O)O[C@H]1C)C[C@H](O)[C@H]2C(=O)O [AMPHOTERICIN B]", "MIC [µg/mL]": 0.5}
{"molecule": "C[C@@H](n1ncc2cc(-c3ccc([N+](=O)[O-])cc3)cn2c1=O)[C@](O)(Cn1cncn1)c1ccc(F)cc1F", "MIC [µg/mL]": 0.25}

Dear reader, for each entry below, please note its MIC.
1. CC[C@@H]([C@H](C)O)n1ncn(-c2ccc(N3CCN(c4ccc(OC[C@@H]5CO[C@@](Cn6cncn6)(c6ccc(F)cc6F)C5)cc4)CC3)cc2)c1=O [POSACONAZOLE]
2. C[C@@H](c1ncncc1F)[C@](O)(Cn1cncn1)c1ccc(F)cc1F [VORICONAZOLE]
3. C[C@@H](n1ncc2cc(Br)cn2c1=O)[C@](O)(Cn1cncn1)c1ccc(F)cc1F

Output:
[0.5, 8, 8]

Dear reader, for each entry below, please note its MIC.
1. CCC(C)n1ncn(-c2ccc(N3CCN(c4ccc(OCC5COC(Cn6cncn6)(c6ccc(Cl)cc6Cl)O5)cc4)CC3)cc2)c1=O (centres undefined) [ITRACONAZOLE]
2. C[C@@H](n1ncc2cc(-c3ccc(C#N)cc3)cn2c1=O)[C@](O)(Cn1cncn1)c1ccc(F)cc1F
3. COc1ccc(-c2cc3cnn([C@H](C)[C@](O)(Cn4cncn4)c4ccc(F)cc4F)c(=O)n3c2)cc1

Output:
1: 1.12; 2: 0.25; 3: 0.094

Input: Name the recorded MIC for `C[C@@H](n1ncc2cccn2c1=O)[C@](O)(Cn1cncn1)c1ccc(F)cc1F` .
Output: 8

###

Provide the reported MIC of each item.
System: Fusarium sp.
assay_explanation: Antifungal activity against Fusarium sp. assessed as reduction in microbial growth […] by broth microdilution method
Format: functional

# count of solved cases: 3
{"compound": "CC[C@@H]([C@H](C)O)n1ncn(-c2ccc(N3CCN(c4ccc(OC[C@@H]5CO[C@@](Cn6cncn6)(c6ccc(F)cc6F)C5)cc4)CC3)cc2)c1=O", "assay_system": "Fusarium sp.", "measured_metric": "MIC", "observed_measurement": "> 8 mg/L"}
{"compound": "C[C@@H](n1ncc2cc(Br)cn2c1=O)[C@](O)(Cn1cncn1)c1ccc(F)cc1F", "assay_system": "Fusarium sp.", "measured_metric": "MIC", "observed_measurement": "> 16 mg/L"}
{"compound": "C[C@@H](n1ncc2cccn2c1=O)[C@](O)(Cn1cncn1)c1ccc(F)cc1F", "assay_system": "Fusarium sp.", "measured_metric": "MIC", "observed_measurement": "> 16 mg/L"}

Dear reader, for each entry below, please note its MIC.
1. CCC(C)n1ncn(-c2ccc(N3CCN(c4ccc(OCC5COC(Cn6cncn6)(c6ccc(Cl)cc6Cl)O5)cc4)CC3)cc2)c1=O (stereo not given)
2. COc1ccc(-c2cc3cnn([C@H](C)[C@](O)(Cn4cncn4)c4ccc(F)cc4F)c(=O)n3c2)cc1

Output:
1. > 16 mg/L
2. > 16 mg/L
